z-score by entry:
experiment: budding yeast growth changes without added modifier – OD600, strain BY4716, 24 h, basal condition, primary screen (AID 1173); settings: S. cerevisiae BY4716 growth, OD600, 24 h; higher = more signal, called active from +8 up or from −8 down

[
  {
    "molecule": "O=C1O[C@@H](c2ccccc2)[C@@H](c2ccccc2)N2[C@@H](c3ccc(O)cc3)[C@]3(C(=O)Nc4ccc(C#CC5(O)CCCCCC5)cc43)[C@@H](C(=O)N3CCN(c4ncccn4)CC3)[C@H]12",
    "z-score": -0.271
  },
  {
    "molecule": "COC(=O)[C@@]1(Cc2ccc(F)cc2)[C@@H]2[C@@H](CC(=O)[C@H]2CC(=O)C(=O)N2CCCC2)CN1C(=O)c1ccccc1",
    "z-score": 0.508
  },
  {
    "molecule": "COc1ccc([Si](C)(C)[C@H]2[C@H](CCn3cc(CCO)nn3)O[C@@]3(C(=O)N(Cc4cccc(N5C(=O)c6cccc7cccc5c67)c4)c4ccccc43)[C@@H]2C)cc1",
    "z-score": 0.425
  }
]

The measurements presented in this section are drawn from PubChem BioAssay.
